Test system: β-galactosidase in CMV-LacZ C2C12 myotubes
Test: CMV-LacZ secondary screen in C2C12 myotubes (β-Gal stabilizing assay)
Format: cell-based, mouse
Conditions: 40 uM; C2C12 CMV-LacZ myotubes; fold relative to DMSO
measurement-type: CMV-LACZ in Myotubes, signal relative to DMSO
Lab note: write the figure by itself, no unit.

query: Lab note: need CMV-LACZ in Myotubes, signal relative to DMSO with β-galactosidase in CMV-LacZ C2C12 myotubes for entry "COc1cc(Cl)cc(CN2CCC(CCC(=O)NC3CC3)CC2)c1OC" , please look it up.
result: 0.9794

query: Lab note: need CMV-LACZ in Myotubes, signal relative to DMSO with β-galactosidase in CMV-LacZ C2C12 myotubes for entry O=C(Nc1ccccc1Cl)C1CCCN1C(=O)OCc1ccccc1 (stereo not shown) , please look it up.
result: 1.0141

query: Lab note: need CMV-LACZ in Myotubes, signal relative to DMSO with β-galactosidase in CMV-LacZ C2C12 myotubes for entry "Cc1cccc(Sc2nc(-c3ccccc3)ccc2C#N)c1" , please look it up.
result: 0.9889

query: Lab note: need CMV-LACZ in Myotubes, signal relative to DMSO with β-galactosidase in CMV-LacZ C2C12 myotubes for entry "CCNC(=O)CSc1nc(-c2ccc(F)cc2)cs1" , please look it up.
result: 0.9968

====

Test system: β-galactosidase in CMV-LacZ C2C12 myotubes
Assay: CMV-LacZ secondary screen in C2C12 myotubes (β-Gal stabilizing assay)
Type: cell-based, mouse
Settings: 5 uM; C2C12 CMV-LacZ myotubes; fold relative to DMSO
Source text: In order to determine compounds that acted to stabilize β-gal in myogenic cells, a CMV-LacZ C2C12 cell line was used in a secondary screen. The EGFP gene from the pEGFP (Clontech) vector was replaced by LACZ PCR product with digests of the vector/PCR product performed using EcoRI (NEB) and NotI (NEB) and ligated using T4 DNA Ligase (NEB) following standard procedures to produce the CMV-LACZ vector. […]
measurement-type: CMV-LACZ in Myotubes, signal relative to DMSO
Lab note: write the figure by itself, no unit.

query: Lab note: need CMV-LACZ in Myotubes, signal relative to DMSO with β-galactosidase in CMV-LacZ C2C12 myotubes for entry "Cc1ccccc1NC(=O)c1ccc2c(O)c(S(=O)(=O)c3ccccc3)c(=O)[nH]c2c1" , please look it up.
result: 1.2038

query: Lab note: need CMV-LACZ in Myotubes, signal relative to DMSO with β-galactosidase in CMV-LacZ C2C12 myotubes for entry "O=C(c1cccs1)N(Cc1ccco1)c1nc(-c2ccc(F)cc2)cs1" , please look it up.
result: 1.022

query: Lab note: need CMV-LACZ in Myotubes, signal relative to DMSO with β-galactosidase in CMV-LacZ C2C12 myotubes for entry "COc1ccc(OC)c(S(=O)(=O)Nc2c(NC3CCCCC3)c3ccccc3oc2=O)c1" , please look it up.
result: 1.1898

query: Lab note: need CMV-LACZ in Myotubes, signal relative to DMSO with β-galactosidase in CMV-LacZ C2C12 myotubes for entry "Nc1ncnc(N2CCc3ccccc32)c1[N+](=O)[O-]" , please look it up.
result: 0.8743

query: Lab note: need CMV-LACZ in Myotubes, signal relative to DMSO with β-galactosidase in CMV-LacZ C2C12 myotubes for entry "Cc1cc(OCC(=O)NC(C)C)ccc1Cl" , please look it up.
result: 1.1407

query: Lab note: need CMV-LACZ in Myotubes, signal relative to DMSO with β-galactosidase in CMV-LacZ C2C12 myotubes for entry "O=C(CSc1nnc(COc2ccc(Br)cc2)o1)NC1CCCCC1" , please look it up.
result: 1.1407

query: Lab note: need CMV-LACZ in Myotubes, signal relative to DMSO with β-galactosidase in CMV-LacZ C2C12 myotubes for entry "Cc1ccc(C2=C(CC(=O)O)C(=O)CC2)cc1" , please look it up.
result: 0.8021

query: Lab note: need CMV-LACZ in Myotubes, signal relative to DMSO with β-galactosidase in CMV-LacZ C2C12 myotubes for entry "Cc1ccc(N(CCC(=O)O)S(=O)(=O)c2cccc(C(F)(F)F)c2)cc1" , please look it up.
result: 0.855

query: Lab note: need CMV-LACZ in Myotubes, signal relative to DMSO with β-galactosidase in CMV-LacZ C2C12 myotubes for entry "CCCCN(CCCC)CCNC(=O)c1cn(C)c2ccc(S(=O)(=O)N(C)C3CCCCC3)cc2c1=O" , please look it up.
result: 0.8036

query: Lab note: need CMV-LACZ in Myotubes, signal relative to DMSO with β-galactosidase in CMV-LacZ C2C12 myotubes for entry "CC(C)(C)c1ccc(C(=O)OCC(=O)Nc2sc3c(c2C#N)CCC3)cc1" , please look it up.
result: 1.0094

query: Lab note: need CMV-LACZ in Myotubes, signal relative to DMSO with β-galactosidase in CMV-LacZ C2C12 myotubes for entry "CC(C)(C)n1cnc2cc(NC(=O)c3ccco3)ccc21" , please look it up.
result: 1.002

query: Lab note: need CMV-LACZ in Myotubes, signal relative to DMSO with β-galactosidase in CMV-LacZ C2C12 myotubes for entry O=C1CCC(C(=O)N2CCSCC2)CN1Cc1ccc(Cl)cc1 (centres unmarked) , please look it up.
result: 1.0126

query: Lab note: need CMV-LACZ in Myotubes, signal relative to DMSO with β-galactosidase in CMV-LacZ C2C12 myotubes for entry "O=C(N/N=C/c1c[nH]c2ccccc12)c1cc(Cl)ccc1O" , please look it up.
result: 0.9853

query: Lab note: need CMV-LACZ in Myotubes, signal relative to DMSO with β-galactosidase in CMV-LacZ C2C12 myotubes for entry "NC(=O)c1sc2nc3c(cc2c1N)CCC3" , please look it up.
result: 0.9294

query: Lab note: need CMV-LACZ in Myotubes, signal relative to DMSO with β-galactosidase in CMV-LacZ C2C12 myotubes for entry "O=C(NCCCn1ccnc1)/C(=C/c1cccs1)NC(=O)c1ccco1" , please look it up.
result: 0.9651

query: Lab note: need CMV-LACZ in Myotubes, signal relative to DMSO with β-galactosidase in CMV-LacZ C2C12 myotubes for entry "Cc1nnc(-c2ccc(N3CCOCC3)c([N+](=O)[O-])c2)o1" , please look it up.
result: 0.9547

query: Lab note: need CMV-LACZ in Myotubes, signal relative to DMSO with β-galactosidase in CMV-LacZ C2C12 myotubes for entry "CCOC(=O)c1nnn(-c2nonc2OC)c1-c1ccccc1" , please look it up.
result: 1.2294

query: Lab note: need CMV-LACZ in Myotubes, signal relative to DMSO with β-galactosidase in CMV-LacZ C2C12 myotubes for entry "COc1ccc(S(=O)(=O)N(NC2=NS(=O)(=O)c3ccccc32)C(=O)C(C)C)cc1" , please look it up.
result: 0.9333

query: Lab note: need CMV-LACZ in Myotubes, signal relative to DMSO with β-galactosidase in CMV-LacZ C2C12 myotubes for entry "Fc1ccc(-c2ccnc3nc(N4CCN(c5ccccc5)CC4)nn23)cc1" , please look it up.
result: 1.0040

query: Lab note: need CMV-LACZ in Myotubes, signal relative to DMSO with β-galactosidase in CMV-LacZ C2C12 myotubes for entry "Cc1cc2ccccc2n2c(SCC(=O)NCc3cccs3)nnc12" , please look it up.
result: 0.9507

query: Lab note: need CMV-LACZ in Myotubes, signal relative to DMSO with β-galactosidase in CMV-LacZ C2C12 myotubes for entry "CCCCNc1nnc(Cc2ccc(Cl)cc2)c(=O)[nH]1" , please look it up.
result: 0.9309

query: Lab note: need CMV-LACZ in Myotubes, signal relative to DMSO with β-galactosidase in CMV-LacZ C2C12 myotubes for entry "O=C(COc1ccc(Cl)cc1)N1CCN(C2CCCC2)CC1.O=C(O)C(=O)O" , please look it up.
result: 1.1337

query: Lab note: need CMV-LACZ in Myotubes, signal relative to DMSO with β-galactosidase in CMV-LacZ C2C12 myotubes for entry CCCS(=O)(=O)N1CCCC(C(=O)c2cccc(Cl)c2)C1 (centres unmarked) , please look it up.
result: 0.8684
